Sourced from patent US11065257B2

Target: human PDE4D catalytic domain (Homo sapiens, UniProt Q08499)
Sequence (Q08499 380-740): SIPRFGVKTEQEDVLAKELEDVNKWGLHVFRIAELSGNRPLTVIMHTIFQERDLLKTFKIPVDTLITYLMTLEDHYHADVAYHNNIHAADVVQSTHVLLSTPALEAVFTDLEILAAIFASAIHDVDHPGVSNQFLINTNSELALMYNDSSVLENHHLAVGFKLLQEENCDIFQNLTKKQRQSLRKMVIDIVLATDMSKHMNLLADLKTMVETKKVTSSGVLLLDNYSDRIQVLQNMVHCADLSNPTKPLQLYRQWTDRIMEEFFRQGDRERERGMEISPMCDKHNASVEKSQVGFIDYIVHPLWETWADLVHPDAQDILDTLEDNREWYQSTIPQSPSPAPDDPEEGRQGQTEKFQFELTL
pIC50: −log10 of the molar value.
pIC50: recorded values

Smiles	pIC50
CCc1nn(CCCOC(=O)c2ccnnc2)c2c1C(=O)NCC1(CCOCC1)C2	< 6.30
CCc1nn(CCCOC(=O)c2cc(C)n[nH]2)c2c1C(=O)NCC1(CCOCC1)C2	6.30 to 7.00
CCc1nn(CCCOC(=O)c2nc[nH]n2)c2c1C(=O)NCC1(CCOCC1)C2	< 6.30
CCc1nn(CCCOC(=O)c2ccsn2)c2c1C(=O)NCC1(CCOCC1)C2	6.30 to 7.00

###

Here we list molecules with their recorded IC50 when tested on human PDE4D catalytic domain (Homo sapiens).
Observable: IC50

Molecule	Reported Value
CCc1noc(C)c1C(=O)OCCCn1nc(CC)c2c1CC1(CCOCC1)CNC2=O [Example 92]	> 500 nM
CCc1nn(CCCOC(=O)c2sc(C)nc2C)c2c1C(=O)NCC1(CCOCC1)C2 [Example 95]	100 to 500 nM
CCc1nn(CCCOC(=O)C2CCN(C(=O)OC)CC2)c2c1C(=O)NCC1(CCOCC1)C2 [Example 105]	100 to 500 nM
CCc1nn(CCOC(=O)c2cocn2)c2c1C(=O)NCC1(CCOCC1)C2 [Example 2]	> 500 nM
CCc1nn(CCCOC(=O)c2cccnc2C)c2c1C(=O)NCC1(CCOCC1)C2 [Example 65]	100 to 500 nM
CCc1nn(CCOC(=O)c2nc(C)cs2)c2c1C(=O)NCC1(CCOCC1)C2 [Example 14]	100 to 500 nM
CCc1nn(CCCOC(=O)c2cnnn2C)c2c1C(=O)NCC1(CCOCC1)C2 [Example 49]	100 to 500 nM
CCc1nn(CCOC(=O)c2coc(C)n2)c2c1C(=O)NCC1(CCOCC1)C2 [Example 5]	> 500 nM
CCc1nn(CCCOC(=O)c2scnc2C)c2c1C(=O)NCC1(CCOCC1)C2 [Example 81]	100 to 500 nM
CCc1nn(CCCOC(=O)c2cocn2)c2c1C(=O)NCC1(CCOCC1)C2 [Example 23]	> 500 nM
CCc1nn(CCCOC(=O)c2cc(C)nnc2C)c2c1C(=O)NCC1(CCOCC1)C2 [Example 88]	> 500 nM
CCc1nn(CCCOC(=O)c2c(C)nn(C)c2C)c2c1C(=O)NCC1(CCOCC1)C2 [Example 91]	100 to 500 nM
CCc1nn(CCCOC(=O)c2coc(C3CC3)n2)c2c1C(=O)NCC1(CCOCC1)C2 [Example 89]	100 to 500 nM
CCc1nn(CCCOC(=O)c2sc(OC)nc2C)c2c1C(=O)NCC1(CCOCC1)C2 [Example 100]	100 to 500 nM
CCc1nn(CCCOC(=O)c2c(C)noc2C)c2c1C(=O)NCC1(CCOCC1)C2 [Example 75]	> 500 nM
CCc1nn(CCCOC(=O)C2CCS(=O)(=O)CC2)c2c1C(=O)NCC1(CCOCC1)C2 [Example 103]	> 500 nM
CCc1nn(CCCOC(=O)c2cc(C)ns2)c2c1C(=O)NCC1(CCOCC1)C2 [Example 78]	100 to 500 nM
